Assay: self-splicing fitness, log relative to wild type (ln ratio); higher = more splicing; Tetrahymena group I intron in knt gene, E. coli kanamycin selection, DiMSum; sequences stand for … in CUCUCU…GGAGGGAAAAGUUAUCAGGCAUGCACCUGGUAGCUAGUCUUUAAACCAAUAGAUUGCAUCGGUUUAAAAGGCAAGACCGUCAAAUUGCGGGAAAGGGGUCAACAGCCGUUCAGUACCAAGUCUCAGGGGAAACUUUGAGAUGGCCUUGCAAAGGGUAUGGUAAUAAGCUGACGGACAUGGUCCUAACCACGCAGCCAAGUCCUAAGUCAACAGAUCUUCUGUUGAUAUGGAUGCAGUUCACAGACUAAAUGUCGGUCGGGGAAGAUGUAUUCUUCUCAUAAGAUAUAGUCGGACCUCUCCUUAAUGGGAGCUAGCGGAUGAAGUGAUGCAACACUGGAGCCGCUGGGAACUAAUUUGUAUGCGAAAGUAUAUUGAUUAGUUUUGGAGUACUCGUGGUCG;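 also: selection with 25 µg/mL kanamycin versus none on LB agar overnight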
Settings: 30 °C
reported-property: self-splicing fitness (ln)
# output: bare number, no unit

GCCAAGCAAUAUUACGUCGU
-0.691
UUGGAGCAAUAUUACGUAAG
-2.23
CGGGAGCAAUAUUACGGCAC
-3.74
GGCAAGCAAUAUUACGUGUA
-0.7
GAAAAGCAAUAUUACGGUGG
-3.78

Alright, here's another sequence for you.
(Q) Consider the sequence shown here: `AAUAAGCAAUAUUACGAAAG` What is its recorded self-splicing fitness (ln)?
(A) -3.68

====

Assay: self-splicing fitness, log relative to wild type (ln ratio); higher = more splicing; Tetrahymena group I intron in knt gene, E. coli kanamycin selection, DiMSum; sequences stand for … in CUCUCU…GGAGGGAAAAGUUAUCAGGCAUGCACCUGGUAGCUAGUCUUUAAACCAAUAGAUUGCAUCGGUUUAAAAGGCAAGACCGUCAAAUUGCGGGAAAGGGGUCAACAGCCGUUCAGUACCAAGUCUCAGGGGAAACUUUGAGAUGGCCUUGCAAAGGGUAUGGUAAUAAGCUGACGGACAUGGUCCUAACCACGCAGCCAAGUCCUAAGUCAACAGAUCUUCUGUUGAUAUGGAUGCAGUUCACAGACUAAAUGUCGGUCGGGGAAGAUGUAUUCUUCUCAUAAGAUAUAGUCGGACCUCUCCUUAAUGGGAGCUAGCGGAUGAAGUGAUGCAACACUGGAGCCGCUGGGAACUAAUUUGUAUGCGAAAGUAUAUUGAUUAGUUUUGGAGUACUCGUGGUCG
Settings: 30 °C
Catalogue of self-splicing fitness (ln) values

Would you please look over these solved cases?
GCCUAGCAAUAUUACGAAGG
-3.05
UAACAGCAAUAUUACGGAAA
-2.91

Next:
(Q) GET /values?readout=self-splicing fitness (ln)&item= `GACGAGCAAUAUUACGAAAG`
(A) -3.59

====

Assay: self-splicing fitness, log relative to wild type (ln ratio); higher = more splicing; Tetrahymena group I intron in knt gene, E. coli kanamycin selection, DiMSum; sequences stand for … in CUCUCU…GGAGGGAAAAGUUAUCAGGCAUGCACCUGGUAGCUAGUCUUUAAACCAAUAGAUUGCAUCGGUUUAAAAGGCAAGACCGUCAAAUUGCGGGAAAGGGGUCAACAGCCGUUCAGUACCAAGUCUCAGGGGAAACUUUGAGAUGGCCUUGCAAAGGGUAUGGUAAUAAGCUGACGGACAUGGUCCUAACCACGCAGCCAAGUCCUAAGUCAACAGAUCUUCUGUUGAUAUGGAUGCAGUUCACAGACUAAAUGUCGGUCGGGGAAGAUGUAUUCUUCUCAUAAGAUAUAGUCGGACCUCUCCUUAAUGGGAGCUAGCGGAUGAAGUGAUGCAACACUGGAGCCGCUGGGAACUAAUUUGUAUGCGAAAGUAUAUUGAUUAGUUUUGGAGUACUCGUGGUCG
Conditions: 37 °C
reported-property: self-splicing fitness (ln)
Lab note: jot down the number only; don't add units.

(Q) Look up self-splicing fitness (ln) for this sequence: `GACCAGCAAUAUUACGGCUU`
(A) -0.293

(Q) Which self-splicing fitness (ln) reading was recorded for the sequence `AUAGAGCAAUAUUACGGUCG` ?
(A) -1.12

(Q) May I ask what self-splicing fitness (ln) has been recorded for `UUUAAGCAAUAUUACGCCCA` ?
(A) 0.619

(Q) Can you look up the measured self-splicing fitness (ln) of `GCGCAGCAAUAUUACGACGU` for me?
(A) -1.13

(Q) Need self-splicing fitness (ln), item `UAAAAGCAAUAUUACGUUAC`
(A) -2.78

(Q) // lookup self-splicing fitness (ln) for `ACAAAGCAAUAUUACGAGCU`
(A) -0.624

(Q) For the sequence `CCACAGCAAUAUUACGUCAG` , what self-splicing fitness (ln) is on record?
(A) -0.131

(Q) Entry `CUAAAGCAAUAUUACGCGAU` has what self-splicing fitness (ln)?
(A) 0.349

(Q) Value lookup for self-splicing fitness (ln); key = `GCCUAGCAAUAUUACGCAUG`
(A) -1.67

(Q) GET /values?readout=self-splicing fitness (ln)&item= `CUGGAGCAAUAUUACGAAUU`
(A) -1.27

(Q) Return reported self-splicing fitness (ln); argument: `UGCGAGCAAUAUUACGCCGC`
(A) -1.3

(Q) Given the sequence `GUAUAGCAAUAUUACGGCUG` , what is its reported self-splicing fitness (ln)?
(A) -0.532

(Q) Which value of self-splicing fitness (ln) has been reported for `ACUGAGCAAUAUUACGGUCC` in the records?
(A) -2.26

(Q) Which self-splicing fitness (ln) value belongs to `UGUCAGCAAUAUUACGCCGG` ?
(A) -0.725

(Q) I'd like to know its self-splicing fitness (ln). The sequence in question is `GCACAGCAAUAUUACGCACC`
(A) 0.129

(Q) For `AUACAGCAAUAUUACGAACU` , what is its reported self-splicing fitness (ln)?
(A) 0.0661

(Q) Look up self-splicing fitness (ln) for this sequence: `AUAAAGCAAUAUUACGGAGU`
(A) -0.598

(Q) Please report the recorded self-splicing fitness (ln) for `AUUUAGCAAUAUUACGUUGA` .
(A) -2.27

(Q) Which self-splicing fitness (ln) is reported for this sequence? `CAUGAGCAAUAUUACGGUGG`
(A) -0.665

(Q) Look up self-splicing fitness (ln): `UGGAAGCAAUAUUACGCGCU`
(A) -1.52

(Q) Which value of self-splicing fitness (ln) has been reported for `CUGAAGCAAUAUUACGGGCA` in the records?
(A) -1.25

====

Assay: self-splicing fitness, log relative to wild type (ln ratio); higher = more splicing; Tetrahymena group I intron in knt gene, E. coli kanamycin selection, DiMSum; sequences stand for … in CUCUCU…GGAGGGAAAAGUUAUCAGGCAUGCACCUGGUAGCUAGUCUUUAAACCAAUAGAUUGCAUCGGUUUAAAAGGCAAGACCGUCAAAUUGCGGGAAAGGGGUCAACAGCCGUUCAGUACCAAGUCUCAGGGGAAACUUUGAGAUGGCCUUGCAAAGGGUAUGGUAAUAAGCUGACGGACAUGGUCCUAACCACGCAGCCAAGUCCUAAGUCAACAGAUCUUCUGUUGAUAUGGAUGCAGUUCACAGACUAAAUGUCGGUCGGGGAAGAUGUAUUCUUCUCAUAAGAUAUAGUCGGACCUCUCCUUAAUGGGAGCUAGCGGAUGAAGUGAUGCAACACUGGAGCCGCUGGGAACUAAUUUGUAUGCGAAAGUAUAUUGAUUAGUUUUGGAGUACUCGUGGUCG
Conditions: 37 °C
reported-property: self-splicing fitness (ln)

Sample records with self-splicing fitness (ln):
ACUUAGCAAUAUUACGCAGU
-2.17
CGACAGCAAUAUUACGAGUU
-3.25
CUGGAGCAAUAUUACGGCGG
-1.44
GUAGAGCAAUAUUACGAGCA
-0.601
CAUGAGCAAUAUUACGCUCC
-1.38
CGGUAGCAAUAUUACGUCGG
0.638
GUAUAGCAAUAUUACGCCCU
0.0529
CCUAAGCAAUAUUACGACUG
-0.483

(Q) Suppose we examine the sequence `AGAUAGCAAUAUUACGGAGC` ; what self-splicing fitness (ln) value has been reported?
(A) -1.5

(Q) Consider the sequence `ACAGAGCAAUAUUACGCGCA` and give its measured self-splicing fitness (ln).
(A) -0.798

(Q) Could you tell me which self-splicing fitness (ln) is on file for `GUUCAGCAAUAUUACGUGGA` ?
(A) -1.42

(Q) State the recorded self-splicing fitness (ln) for this entry: `CUCGAGCAAUAUUACGGUCC`
(A) -2.33

(Q) Consider the sequence `GCAAAGCAAUAUUACGCGUA` and give its measured self-splicing fitness (ln).
(A) -0.362
